Provenance of the data: PubChem BioAssay (EPA / NIEHS)

- Read-out: Plasminogen activator inhibitor-1 (PAI1), SERPINE1 (gene 5054)
- protocolDescription: BSK_MyoF_PAI1: BioMAP Diversity Plus: MyoF Assay for Plasminogen activator inhibitor-1 (PAI1) Biomarker Activity (AID 2284256)
- statedConditions: primary human lung fibroblasts
Active and inactive are the calls of the source. How the source made its calls: active means hit-call score of the fitted dose curve at least 0.9, where 1 is the maximum; inactive means score below 0.9.
Possible outcomes: active, inactive

- compound: "CC(=O)/C=C/C1=C(C)CCCC1(C)C"
  classification: "inactive"
- compound: "CCCCC/C=C/C=C/C=O"
  classification: "active"
- compound: "BrC1CCC(Br)C(Br)CCC(Br)C(Br)CCC1Br (centres undefined)"
  classification: "inactive"
- compound: "c1ccc2sc(SN(C3CCCCC3)C3CCCCC3)nc2c1"
  classification: "inactive"
- compound: "C=C[Si](OCC)(OCC)OCC"
  classification: "inactive"
- compound: "CCCCC(CC)COCCC#N (centres undefined)"
  classification: "inactive"
- compound: "Cc1ccc2n[nH]nc2c1"
  classification: "inactive"
- compound: "CC(=O)Nc1ccccc1O"
  classification: "inactive"
- compound: "N#Cc1ccc(CC(=NNC(=O)Nc2ccc(OC(F)(F)F)cc2)c2cccc(C(F)(F)F)c2)cc1"
  classification: "inactive"
- compound: "c1ccc2c(c1)c1cccc3ccc4cccc2c4c31"
  classification: "active"
- compound: "O=P(c1ccccc1)(c1ccccc1)c1ccccc1"
  classification: "inactive"
- compound: "CCc1c(C)cc(N)c(CC)c1N"
  classification: "inactive"
- compound: "CC1CCC(C(C)CS)CC1S (centres undefined)"
  classification: "active"
- compound: "CC(C)(COC(=O)c1ccccc1)COC(=O)c1ccccc1"
  classification: "inactive"

###

- protocolDescription: ATG_AP_2_CIS: Attagene CIS-FACTORIAL HepG2 Assay for human Activator Protein 2 (AP-2) (AID 2282932)
- statedConditions: HepG2 AP-2 cis-reporter, Attagene transcription factor profiling; actives raise or lower the signal
The source made the active and inactive calls. Rule for the calls: active = hit-call score of the fitted dose curve at least 0.9, where 1 is the maximum; inactive = score below 0.9.
Possible outcomes: label 1 for active, label 0 for inactive

- molecule: "Nc1cc(Cl)c(O)c(Cl)c1"
  classification: "label 0"
- molecule: "CC1=CC(=O)NS(=O)(=O)O1"
  classification: "label 0"
- molecule: "CCCCOCCOCCSC#N"
  classification: "label 0"
- molecule: "CC(CN1c2ccccc2Sc2ccccc21)N(C)C (configuration not stated)"
  classification: "label 1"
- molecule: "O=S(=O)(O)NC1CCCCC1"
  classification: "label 0"
- molecule: "FC1(F)C(F)(F)C(F)(F)C2(F)C(F)(C1(F)F)C(F)(F)C(F)(F)C1(F)C(F)(F)C(F)(F)C(F)(F)C(F)(F)C12F (configuration not stated)"
  classification: "label 0"
- molecule: "C=C(C)C(=O)OCCOC(=O)CC(C)=O"
  classification: "label 0"

###

- protocolDescription: ATG_CMV_CIS: Attagene CIS-FACTORIAL HepG2 Assay for human CMV (Internal Marker) (AID 2282928);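 further: endpoint acts as a background internal control marker rather than a target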
- statedConditions: HepG2 CMV promoter reporter, transcription factor profiling; actives raise or lower the signal
Active and inactive are the calls of the source. How the source made its calls: active means hit-call score of the fitted dose curve at least 0.9, where 1 is the maximum; inactive means score below 0.9.
Possible outcomes: 1 for active, -1 for inactive

- molecule: "CC(=O)Nc1ccc(C)cc1C"
  classification: -1
- molecule: "CC(C)c1cccc(O)c1"
  classification: -1
- molecule: "BrC1CCC(Br)C(Br)CCC(Br)C(Br)CCC1Br (configuration not stated)"
  classification: 1
- molecule: "O=C[C@@H](O)[C@H](O)[C@H](O)CO"
  classification: -1
- molecule: "C=C(C)[C@@H]1CC[C@@H](C)C[C@@H]1O"
  classification: -1
- molecule: "COCCCOc1ccnc(CS(=O)c2nc3ccccc3[nH]2)c1C (configuration not stated)"
  classification: -1
- molecule: "CCCCCCCCCCC(CO)CCCCCCCC (configuration not stated)"
  classification: -1
